- Tested on: OCI-AML2;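 also: after 48 h exposure read by CellTiter-Glo luminescence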
- Assay Explanation: cell viability relative to vehicle control; higher = less cytotoxic
- Reported Conditions: 10 µM; SRSF2 genotype: P95H/wt
Where a name gives a salt, the structure may show the parent alone.
As shown below, each of these molecules has a reported cell viability value.
Return type: number; implicit unit %.

Solved cases below.
| Molecule | Meas Value |
| --- | --- |
| CC1(C)C=C(CN2C/C(=C\c3ccc(F)cc3)C(=O)/C(=C/c3ccc(F)cc3)C2)C(C)(C)N1O | 0.24 |
| CC(=O)c1cc(O)ccc1O [2',5'-Dihydroxyacetophenone] | 94.7 |
| CC(C)(C)c1[nH]cnc1/C=c1\[nH]c(=O)/c(=C/c2ccccc2)[nH]c1=O | 2.13 |

Q: What cell viability appears in the records for this molecule with OCI-AML2? OC1CCC(Oc2cccc3cnc(Nc4ccc5nc[nH]c5c4)nc23)CC1 (configuration not stated)
A: 1.67

Q: What cell viability appears in the records for this molecule with OCI-AML2? CC/C(=C(\c1ccc(O)cc1)c1ccc(OCCNC)cc1)c1ccccc1 [Endoxifen HCl]
A: 17

Q: What cell viability appears in the records for this molecule with OCI-AML2? COc1ccccc1OCCNCC(O)COc1cccc2[nH]c3ccccc3c12 (configuration not stated)
A: 56.1
